Sourced from the supplement of paper PMC9170038

Tested on: MS2 coat protein
assayComment: apparent KD of MS2 coat protein, switch ON state; designed switch direction (-1 OFF switch, 1 ON switch): -1; higher = weaker reporter binding
setupConditions: FMN input: 0 or 200 uM; Eterna round: R93 (includes R88 designs)
Quick list: apparent KD of MS2 coat protein per entry.
Quick note: give the figure in µM, leave out the unit.

- primarySequence: "AAGAAAGCAGGAUAUACAUGAGGAUCACCCAUGUAAAAGAAAGAAAAGGGAAAGAAAAGUAGAAGGGCUAAGAA [User/Heqamaatre-setpenamun Ramesses IV]"
  apparent KD of MS2 coat protein (µM): 0.0272
- primarySequence: "AAAAAACAUGAGGAUCACCCAUGUAAGGAUAUCGGAAAAGGAAAAAUAAAAAAGAAGACGAGAAGGUACACCAA [Mat - Exclusion 1 - Eli mod - D78]"
  apparent KD of MS2 coat protein (µM): 0.0258
- primarySequence: "AAGGGACAUGAGGAUCACCCAUGUAAGGAUAUCGGAAAAGGAAAAAAAAAAAAUAAGACGAGAAGGUACAAAAA [Mat - Exclusion 1 - Eli mod - D80]"
  apparent KD of MS2 coat protein (µM): 0.0702
- primarySequence: "AGCUAGUCAGGAUAUACGAACAGCUCAAAAGAGCUGAAGGGACAUGAGGAUCACCCAUGUAGAAGGGACUAGCA [Mat - Exclusion 2 - JL mod - D27]"
  apparent KD of MS2 coat protein (µM): 0.0245
- primarySequence: "ACAUGUACAGGAUAUACAUGGAAAAAAAAAAAAAAAAAACUACAUGAGGAUCACCCAUGUAGAAGGGUACAUGA [Ex2 Design 193: Random 12B]"
  apparent KD of MS2 coat protein (µM): 0.0258

Next up:
// sample AGAAUUGUAGGAUAUACAUGAGGAUCACCCAUGUGGGAGGUGGAGCAAACAAGACGAGGUAGAAGGACAACGAC [JR_Exc003-Sub904] , its apparent KD of MS2 coat protein was 0.134

###

Quick list: apparent KD of K4 kissing-loop reporter per entry.
Tested on: K4 kissing-loop RNA reporter
assayComment: apparent KD of K4 kissing-loop reporter; higher = weaker reporter binding
setupConditions: Eterna round: R107; input ligand: arginine 13.2 mM
Could you give the number and then its unit, please?

Example cases with answers are listed next.
- primarySequence: "AAGUGUGUGGCGGCCGCCACUAGAAUCCAGUGAUGUUGGAGAUAUCACGUAAGUGAUAUCCAUCAUAGGACCGGGCCAUAUAGAA [Same State - Tryptophan B (Freestyle 18)]"
  assayValue: "389 nM"
- primarySequence: "GGUGCUGUCUGUGCCGCCCUCCUCGUCCCUCGAGGACCGGUACGGCCGCCACUCGAGUGAUGUUCGGGUAGCCCUCCCUGCCAGC [BDazzled - #21 Exc. Tryptophan A]"
  assayValue: "402 nM"
- primarySequence: "CGAGUGAUGUUCGUUCGUUUAUUUCGGUGACAGGAUAUGCGGAAACGCAGAAGGGUCACCUUUGAGUUACCGGAAUUAACGUUAU [Ex FMN A 29]"
  assayValue: "453 nM"
- primarySequence: "GAUUCUGUUCGAAAGAACGGAAUCUCGGAAGGAGCGAGAGAAAUCUCAGGUAGGUCGCCGAAUUUUUGAUAGUGAUGUUAUCAUU [Arginine A K4 3]"
  assayValue: "380 nM"

// sample AAAUAUUCGAGUGAUGUUCGAAUAAUAUCAGAGGAUAUGCAUAAAAGCAGAAGGCUGUAUUACUUUUUGUUACGAAAUUUUAUAA [JR_SSFMNA_Sub020] , its apparent KD of K4 kissing-loop reporter was 115 nM

// sample UGUCAUUGGUCGGCCGCCACUUCAAGGUCAAAGACCAGAGUGAUGUUCUUGCACAAAGUGCUUAGAAGGACCGGGACCGAUGACU [TrypBS 13 #SwitchBubble #K4Middle] , its apparent KD of K4 kissing-loop reporter was 467 nM

// sample AAAAUUAAGGCCGAAUAAACUUAUUUCAUACGAGGACCGGUACGGCCGCCACUCGAGUCAAGUGAUGUUUGACUAUCUAUUAUUA [JR_ExcTryptoA_Sub009] , its apparent KD of K4 kissing-loop reporter was 87.1 nM

// sample GGGCAAGUGAGUGAUGUUCGAUGAUGCUUAAAGGAUAUGUAGGAAUACAGAAGGUUAUAUUCCCUGACAUUAGAUCUUUACAGGG [theeternabot_exclusion_KL_FMN_A_44] , its apparent KD of K4 kissing-loop reporter was 134 nM

// sample UAUUUAGUGACGGCCGCCACUAUUGUGAUUUAUUUGUUUGAGUGAUGUUUUGAUGUUUGAUUUUGUAGGACCGGGUUAUGUGUUA [awscmullin] , its apparent KD of K4 kissing-loop reporter was 733 nM

###

Tested on: K4 kissing-loop RNA reporter;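 further: bound reporter read as fluorescence of individual clusters on recovered sequencing chips by microscopy, with normalized cluster intensities fitted with a binding model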
assayComment: apparent KD of K4 kissing-loop reporter; higher = weaker reporter binding
setupConditions: Eterna round: R107; input ligand: theophylline 20 uM
Label false if apparent KD of K4 kissing-loop reporter falls below 200 nM; label true in every other case.

These recorded examples may help you get a feel for the data.
- primarySequence: "CGUUUAUAGGAGGAUACCAGUACGGAUAAAGUACGUUAAUAGUAGAGUGAUGUUCUAAAGUACCCUUGGCAGCUUAGAGUGAGUG [ExTheophylB.N]"
  cat: "false"
- primarySequence: "AGUCUGUAUGACAUAAGUGAUGUUUAUGUUCGAGGACCGGUACGGCCGCCACUCGCAAAUGUAUGAUUUCACGUUUGUGCAAGUA [KL-XTryp-A #analogue]"
  cat: "true"
- primarySequence: "GGAUCCACCAGUGAUGUUGGAGAAAACUCCAAGGAUAUGACGAAAGUCAGAAGGUGGUAGACUGGUCAAAGUCCGGUCGGAUCCA [FmnA10 U66]"
  cat: "true"

Say whether AGAACUGUCUGAGAUACCAGCCAAGGAGUGAUGUUCCGGCUCGACGAAACGUCGAGCCAUGGCCCUUGGCAGCUCAGACAGUUCA [Omei KL Theo B SS A v2] shows apparent KD of K4 kissing-loop reporter of 200 nM or more.
false

Say whether AAGGUCACUACUACAGUGAUGUUGUGGGAGCAGGAUAUGCAGAAAUGCAGAAGGGCUCGCUCCAGGUGACCGAAUGAAACAUUCA [whbob_SS_FMNA__2th174] shows apparent KD of K4 kissing-loop reporter of 200 nM or more.
true

Say whether GGAUGGUAGGCGGCCGCCACUAAAACUGAACAAAUAUAAACCAGUGAUGUUGGUAUGAUGAAGUAUAGGACCGGGCCUAGAUAGA [Exclusion - Tryptophan B (Freestyle 1)] shows apparent KD of K4 kissing-loop reporter of 200 nM or more.
false

Say whether UUGGAGUGAUGUUCCAUAUCUUGAGCCGAAGGAGCGGCAUUAUUGCCAGGUAGGUCGCGGCAGAAGGUACCAGUGAUGUUGGAAA [Same State Arginine A GF 4] shows apparent KD of K4 kissing-loop reporter of 200 nM or more.
false

Say whether GGAAAGCCAGUGAUGUUGGCAUAAACUGAAGGAGCGCGUGAAAACGCAGGUAGGUCGCAGAACCUUGCCAACUAUAUUAUUUACC [Ex Arginine A K4 21] shows apparent KD of K4 kissing-loop reporter of 200 nM or more.
true

###

Test system: MS2 coat protein
assayComment: apparent KD of MS2 coat protein; designed switch direction (-1 OFF switch, 1 ON switch): 1; higher = weaker reporter binding
setupConditions: Eterna round: R95; input ligand: microRNA oligo, concentration not stated
Using apparent KD of MS2 coat protein as the sorting value, the categories are bottom: < 30 nM; middle: ≥ 30 nM and < 100 nM; top: ≥ 100 nM

These recorded examples may help you get a feel for the data.
- primarySequence: "AGUCCAGCCUGAGCUGGACAAAAGCAUGUACAUGAGGAUCACCCAUGUUCAUGUACAAGCUUUUUGCUCGUCUUAAC [salish99_208a_r3_029] (puzzle: Sensor for hsa-mir-208a)"
  cat: "bottom"
- primarySequence: "GGAGCCGGCACUGAGGAUAUUCAUAAUAAAACAUGAGGAUCACCCAUGUAGGCCAGAAGGCCUUGGGAGAAGGCAGGUCGGCUCA [Mat - Same State 2 - Mod of UCT - D66] (puzzle: Same State 2)"
  cat: "top"
- primarySequence: "GAGGGAUGAGCGUAGGAUAUAGGAGGAGUGACAUGAGGAUCACCCAUGUGGUAUGAGGGAGGAUUCUAGAAGGACGCGGUAGAAG [JR_SS2_Sub064] (puzzle: Same State 2)"
  cat: "top"
- primarySequence: "AAUUUUAAACAUGAGGAUCACCCAUGUGUUAUAUAAGCAAAUAAAUAAAUAAAUAAAUAAAUAAAUAAAUAAAUAAA [RNA Sequence] (puzzle: Sensor for hsa-mir-208a version 2)"
  cat: "middle"
- primarySequence: "GGAGGACAUGAGGAUCACCCAUGUGGAUGGGCGCUAGGAUAUGCGAGAGGGUGGAGAGAAGCAGAAGGAGUGGAUA [JR_SS1_Sub038] (puzzle: Same State 1)"
  cat: "middle"

Exercise: read the entry UACAAUCUAUCUGAGGAUAUCAUGAAUUUAACAUGAGGAUCACCCAUGUGCAGGAAAACUGCAUAUGAGAAGGCAGAUAGAUUGU [salish99_ss2_r3_061] (puzzle: Same State 2) and state which class it falls under.
bottom
